B1: MXI1 peptide 4-19 (Max-interacting protein 1), 16-mer library wild type / SIN3A PAH2 (SIN3A PAH domain, residues 295-383) (parent)
chain 1: VKMINVQRLLEAAEFL
chain 2: SLQNNQPVEFNHAINYVNKIKNRFQGQPDIYKAFLEILHTYQKEQRNAKEAGGNYTPALTEQEVYAQVARLFKNQEDLLSEFGQFLPDA

# Variants of: B1
# test-protocol: proteomic peptide phage display deep mutational scan (ProP-PD DMS): M13 P8 16-mer library selected against immobilised GST-tagged bait for four days (rounds), NGS of the eluted pools per day and pseudo-replica
# protocol-conditions: with SIN3A PAH2 (SIN3A PAH domain, residues 295-383); bait immobilised on MaxiSorp plates (10 µg), library pre-cleared on GST, 2 h binding at 4 °C, five washes; one round per day, days 1-4; value from days 2 and 3; keep out of graded; scale: average fractional NGS count over selection days 2 and 3
assay-readout: screen value

* chain 1 Q7P | 0
* chain 1 I4M | 0.00797
* chain 1 I4D | 0.00294
* chain 1 R8W | 0.000195
* chain 1 E11G | 0
* chain 1 A13M | 8.44e-05
* chain 1 F15I | 0
* chain 1 L10T | 0.000112
* chain 1 I4H | 0.000141
* chain 1 R8Q | 0.000659
* chain 1 M3W | 8.38e-05
* chain 1 K2P | 0.00116
* chain 1 E14I | 0.00251
* chain 1 I4A | 0
* chain 1 R8S | 0.000529
* chain 1 M3D | 0.000126
* chain 1 L16D | 5.21e-05
* chain 1 K2I | 0.00027
* chain 1 E14A | 0.0141
* chain 1 K2V | 0.000308
* chain 1 N5T | 0.000204
* chain 1 A13G | 3.3e-05
* chain 1 L9N | 0
* chain 1 R8A | 0.000466
* chain 1 I4V | 0.00213

Data origin, for the record: paper PMC12102759
